Source listed as patent US20250136696A1.

- System Name: T1, biotinylated human B7-H7 protein (Acro Biosystems, B77-H82F5) (human, UniProt Q9UM44 23-344, biotinylated)
- T1 construct: Bought soluble protein; also called biotin-B7H7 protein
- T1 sequence (looked up): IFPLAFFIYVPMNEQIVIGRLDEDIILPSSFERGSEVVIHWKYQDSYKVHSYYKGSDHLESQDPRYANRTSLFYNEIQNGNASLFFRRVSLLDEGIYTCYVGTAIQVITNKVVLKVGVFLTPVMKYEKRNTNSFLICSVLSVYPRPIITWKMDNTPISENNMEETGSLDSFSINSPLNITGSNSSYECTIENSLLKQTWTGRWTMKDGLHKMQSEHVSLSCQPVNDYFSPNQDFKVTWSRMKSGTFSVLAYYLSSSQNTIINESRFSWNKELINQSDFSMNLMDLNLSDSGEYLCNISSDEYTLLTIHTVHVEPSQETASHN
- Experiment: flow cytometry, blocking of biotinylated human B7-H7 binding to CHO-K1/KIR3DL3 cells
Quantity: IC50 (nM)
The response must be a number in nM with no trailing unit.

Examples from the recorded data:
PR003260 (antibody, human IgG1, kappa, V domains shown, Human IgG1; also called 70F3B1) VH: QVQLVESGGGVVQPGRSLRLPCAASGFTFSRYGMHWVRQAPGKGLEWVADIWYDGSKKYYADSVKGRFTISRDNSKNTLYLQMNSLRAEDTAVYFCTRDGGYSYGPFDYWGQGTLVTVSS VL: EIVMTQSPATLSVSPGERATLSCRASQSVSSNLAWYQQKPGQAPRLLIYYASTRAPGIPARFSGSESGTEFTLTISSLQSEDFAVYYCQQYNIWPYTFGQGTKLEIKR | 6.46
PR003262 (antibody, human IgG1, kappa, V domains shown, Human IgG1; also called 77D5A4) VH: QVQLVESGGGVVQPGRSLRLSCAASGFTFSRYGIHWVRQAPGKGLEWVAVIWYNGRNKYYVDSVKGRFTISRDNSKNTLYLQMNSLRAEDTAVYYCARDGGYSYGPFDYWGQGTLVTVSS VL: EIVMTQSPATLSVSPGERATLSCRASQSFSNNLAWYQQKPGQAPRLLIYGASTRATGIPARFSGSGSGTEFTLTISSLQSEDFAVYYCHQYNIWPLTFGGGTKVEIKR | 9.93
PR003263 (antibody, human IgG1, kappa, V domains shown, Human IgG1; also called 77E6C4) VH: QVQLVESGGGVVQPGRSLRLSCAASGFTFSYYGLNWVRQAPGKGLEWVAVIWFDGTNKYYADSVKGRFTISRDDSKNTLYLQMNSLRAEDTAVYYCARGYGSGSYYNYVMDAWGQGASVTVSS VL: EIVMTQSPATLSVSPGERATLSCRASQSVSSNLAWYQQKPGQAPRLLIYGASTGATGIPARFSGSGSGTDFTLTISSLQSEDFAVYYCQQYYKWPLTFGGGTKVEIKR | 6.23

Alright, here's another binder for you.
State the recorded IC50 for this entry: PR003265 (antibody, human IgG1, kappa, V domains shown, Human IgG1; also called 78G8B3) VH: QVQLVESGGGVVQPGRSLRLSCAASGFTFSTYGLHWVRQAPGKGLEWVAVIWYDESNEYYADSVKGRFTISRDNSKNTLYLQMNSLRAEDTALYYCARLAHDYGGTYFDYWGQGTLVTVSS VL: EIVMTQSPAILSVSPGERATLSCRASQSISYNLAWYQQKPGQAPRLLIYGASIRATGIPARFSGSGSGTDFTLTISSLQSEDFAVYYCQQYNNWPPWTFGQGTKVEIKR
7.04
